tested.system: Protein farnesyltransferase (Homo sapiens, UniProt P49354+P49356)
protocol.summary: Inhibitory activity against farnesyltransferase quantified by SPA assay
Type: protein-complex assay
Overview of reported pIC50 across a group of compounds:
Reminder that pIC50 means the negative base-10 logarithm of the concentration expressed in mol/L.

Example cases with answers are listed next.
# compound, assay.readout, quantitative.readout
rows = [
    ("O=C(NCCCn1ccnc1)C1CN(C2c3ccc(Cl)cc3CCc3cc(Br)cnc32)CCN1C(=O)NC1CCCCC1 (stereo in doubt; 41a)", "pIC50", 8.70),
    ("CCCCC(=O)N1CCN(C2c3ccc(Cl)cc3CCc3cc(Br)cnc32)CC1C(=O)Nc1cnccn1 (centres undefined)", "pIC50", 6.72),
    ("CC(C)NC(=O)N1CCN(C2c3ccc(Cl)cc3CCc3cc(Br)cnc32)CC1C(=O)NCc1cccnc1 (centres undefined)", "pIC50", 7.33),
]

Now for a further compound.
Ask: Using the record for O=C(NCc1cccnc1)C1CN(C2c3ccc(Cl)cc3CCc3cc(Br)cnc32)CCN1C(=O)NC1CCCCC1 (centres undefined) , report its pIC50.
Reply: 8.26

---

tested.system: Protein farnesyltransferase (Homo sapiens, UniProt P49354+P49356)
protocol.summary: Inhibitory activity against farnesyltransferase quantified by SPA assay
Assay type: protein-complex assay
Overview of reported IC50 across a group of molecules:
Write down the numeric answer in µM and omit the unit.

Example cases with answers are listed next.
# molecule, IC50 / µM
measured = [
    ("CC(C)CNC(=O)N1CCN(C2c3ccc(Cl)cc3CCc3cc(Br)cnc32)CC1C(=O)NCc1cccnc1 (stereo not drawn)", 0.008),
    ("CC(C)(C)NC(=O)N1CCN(C2c3ccc(Cl)cc3CCc3cc(Br)cnc32)CC1C(=O)NCc1cccnc1 (stereo not drawn)", 0.015),
    ("CCCCC(=O)N1CCN(C2c3ccc(Cl)cc3CCc3cc(Br)cnc32)CC1C(=O)NCc1c[nH]cn1 (stereo not drawn)", 0.045),
]

Ask: Test system Protein farnesyltransferase (Homo sapiens, UniProt P49354+P49356); read-out IC50; what value for Cn1cncc1CCNC(=O)C1CN(C2c3ccc(Cl)cc3CCc3cc(Br)cnc32)CCN1C(=O)NC1CCCCC1 (stereo not drawn) ?
Reply: 0.0073

Ask: Test system Protein farnesyltransferase (Homo sapiens, UniProt P49354+P49356); read-out IC50; what value for CCOCC(=O)N1CCN(C2c3ccc(Cl)cc3CCc3cc(Br)cnc32)CC1C(=O)NCc1cccnc1 (stereo not drawn) ?
Reply: 0.021

Ask: Test system Protein farnesyltransferase (Homo sapiens, UniProt P49354+P49356); read-out IC50; what value for Cn1cnc(CCNC(=O)C2CN(C3c4ccc(Cl)cc4CCc4cc(Br)cnc43)CCN2C(=O)NC2CCCCC2)c1 (stereo not drawn) ?
Reply: 0.026

Ask: Test system Protein farnesyltransferase (Homo sapiens, UniProt P49354+P49356); read-out IC50; what value for CC(=O)CCCC(=O)N1CCN(C2c3ccc(Cl)cc3CCc3cc(Br)cnc32)CC1C(=O)NCc1cccnc1 (stereo not drawn) ?
Reply: 0.0084

Ask: Test system Protein farnesyltransferase (Homo sapiens, UniProt P49354+P49356); read-out IC50; what value for CCCCC(=O)N1CCN(C2c3ccc(Cl)cc3CCc3cc(Br)cnc32)CC1C(=O)Nc1cc(C)no1 (stereo not drawn) ?
Reply: 0.56
